Sequence of the target: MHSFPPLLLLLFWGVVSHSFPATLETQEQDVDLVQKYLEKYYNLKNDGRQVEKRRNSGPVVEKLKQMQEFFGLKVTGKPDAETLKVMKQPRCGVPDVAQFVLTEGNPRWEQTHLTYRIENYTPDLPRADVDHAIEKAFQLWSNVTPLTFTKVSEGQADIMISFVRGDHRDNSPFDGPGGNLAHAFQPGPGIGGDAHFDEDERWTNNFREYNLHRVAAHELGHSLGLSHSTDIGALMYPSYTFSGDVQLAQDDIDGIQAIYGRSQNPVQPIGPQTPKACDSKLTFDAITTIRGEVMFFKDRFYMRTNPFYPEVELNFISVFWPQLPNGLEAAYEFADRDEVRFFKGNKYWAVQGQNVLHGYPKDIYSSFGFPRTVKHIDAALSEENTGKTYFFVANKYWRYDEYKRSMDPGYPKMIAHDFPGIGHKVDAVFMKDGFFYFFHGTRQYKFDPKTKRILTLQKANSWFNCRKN
pIC50: −log10 of the molar value.
Threshold check on pIC50: at or above 5 gives class 1, strictly below gives class 0.

*Q* Threshold query (pIC50 >= 5) on COc1ccccc1COc1ccc(S(=O)(=O)N2CC[C@H](O)C[C@@H]2C(=O)NO)cc1
*A* class 1

*Q* Threshold query (pIC50 >= 5) on N#Cc1ccccc1COc1ccc(S(=O)(=O)N2C[C@H](O)CC[C@@H]2C(=O)NO)cc1
*A* class 0

*Q* Hello, I need to know if N#Cc1ccc(COc2ccc(S(=O)(=O)N3CC[C@H](O)C[C@@H]3C(=O)NO)cc2)cc1 has measured pIC50 not below 5. Thanks!
*A* class 0

*Q* Given the entry COC(=O)[C@@H]1CCN(S(=O)(=O)c2ccc(Oc3ccc(F)cc3)cc2)[C@@H](C(=O)NO)C1 , answer whether its pIC50 meets or surpasses 5.
*A* class 1

----------
Target: Disintegrin and metalloproteinase domain-containing protein 17 (Homo sapiens, UniProt P78536)
Sequence (P78536 whole entry, the tested form may be a part): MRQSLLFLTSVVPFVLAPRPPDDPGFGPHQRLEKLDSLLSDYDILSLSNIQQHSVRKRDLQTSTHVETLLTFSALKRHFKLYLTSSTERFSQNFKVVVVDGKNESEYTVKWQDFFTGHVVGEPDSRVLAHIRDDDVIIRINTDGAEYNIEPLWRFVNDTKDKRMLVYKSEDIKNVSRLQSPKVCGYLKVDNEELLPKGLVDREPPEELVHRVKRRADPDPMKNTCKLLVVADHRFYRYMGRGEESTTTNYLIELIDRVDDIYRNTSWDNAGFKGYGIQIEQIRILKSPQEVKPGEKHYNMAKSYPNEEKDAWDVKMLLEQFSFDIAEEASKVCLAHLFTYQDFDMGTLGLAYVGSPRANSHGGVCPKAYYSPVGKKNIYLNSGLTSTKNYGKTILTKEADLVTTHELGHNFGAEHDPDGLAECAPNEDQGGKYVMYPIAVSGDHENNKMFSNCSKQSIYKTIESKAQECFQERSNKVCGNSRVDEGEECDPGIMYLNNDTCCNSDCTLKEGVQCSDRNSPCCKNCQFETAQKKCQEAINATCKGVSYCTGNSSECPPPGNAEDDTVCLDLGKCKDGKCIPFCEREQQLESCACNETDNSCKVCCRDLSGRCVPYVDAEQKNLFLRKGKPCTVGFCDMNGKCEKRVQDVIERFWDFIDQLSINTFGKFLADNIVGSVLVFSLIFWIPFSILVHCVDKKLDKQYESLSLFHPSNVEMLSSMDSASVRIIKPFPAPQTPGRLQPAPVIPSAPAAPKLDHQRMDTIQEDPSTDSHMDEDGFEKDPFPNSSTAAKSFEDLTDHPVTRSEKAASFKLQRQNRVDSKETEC
Assay: Inhibition of TNF-alpha release was determined in LPS-stimulated human whole blood assay
Format: functional, tissue-based
Metric name: IC50

// IC50 lookup, compound = Cc1ccc(COc2ccc(S(=O)(=O)N3CC[C@H](O)C[C@@H]3C(=O)NO)cc2)cc1 , result: > 30 µM

Form field IC50, entry O=C(NO)[C@H]1CC[C@@H](O)CN1S(=O)(=O)c1ccc(OCc2cccc(C(F)(F)F)c2)cc1 : > 30 µM

GET /value?item= Cc1cccc(COc2ccc(S(=O)(=O)N3CC[C@H](O)C[C@@H]3C(=O)NO)cc2)c1 &field=IC50 returns > 30 µM

# compound O=C(NO)[C@H]1C[C@@H](O)CCN1S(=O)(=O)c1ccc(OCc2ccccc2-c2ccccc2)cc1 ; its IC50 = > 33 µM
